Molecular target: Sodium channel protein type 9 subunit alpha (Homo sapiens, UniProt Q15858)
Sequence (Q15858 whole entry): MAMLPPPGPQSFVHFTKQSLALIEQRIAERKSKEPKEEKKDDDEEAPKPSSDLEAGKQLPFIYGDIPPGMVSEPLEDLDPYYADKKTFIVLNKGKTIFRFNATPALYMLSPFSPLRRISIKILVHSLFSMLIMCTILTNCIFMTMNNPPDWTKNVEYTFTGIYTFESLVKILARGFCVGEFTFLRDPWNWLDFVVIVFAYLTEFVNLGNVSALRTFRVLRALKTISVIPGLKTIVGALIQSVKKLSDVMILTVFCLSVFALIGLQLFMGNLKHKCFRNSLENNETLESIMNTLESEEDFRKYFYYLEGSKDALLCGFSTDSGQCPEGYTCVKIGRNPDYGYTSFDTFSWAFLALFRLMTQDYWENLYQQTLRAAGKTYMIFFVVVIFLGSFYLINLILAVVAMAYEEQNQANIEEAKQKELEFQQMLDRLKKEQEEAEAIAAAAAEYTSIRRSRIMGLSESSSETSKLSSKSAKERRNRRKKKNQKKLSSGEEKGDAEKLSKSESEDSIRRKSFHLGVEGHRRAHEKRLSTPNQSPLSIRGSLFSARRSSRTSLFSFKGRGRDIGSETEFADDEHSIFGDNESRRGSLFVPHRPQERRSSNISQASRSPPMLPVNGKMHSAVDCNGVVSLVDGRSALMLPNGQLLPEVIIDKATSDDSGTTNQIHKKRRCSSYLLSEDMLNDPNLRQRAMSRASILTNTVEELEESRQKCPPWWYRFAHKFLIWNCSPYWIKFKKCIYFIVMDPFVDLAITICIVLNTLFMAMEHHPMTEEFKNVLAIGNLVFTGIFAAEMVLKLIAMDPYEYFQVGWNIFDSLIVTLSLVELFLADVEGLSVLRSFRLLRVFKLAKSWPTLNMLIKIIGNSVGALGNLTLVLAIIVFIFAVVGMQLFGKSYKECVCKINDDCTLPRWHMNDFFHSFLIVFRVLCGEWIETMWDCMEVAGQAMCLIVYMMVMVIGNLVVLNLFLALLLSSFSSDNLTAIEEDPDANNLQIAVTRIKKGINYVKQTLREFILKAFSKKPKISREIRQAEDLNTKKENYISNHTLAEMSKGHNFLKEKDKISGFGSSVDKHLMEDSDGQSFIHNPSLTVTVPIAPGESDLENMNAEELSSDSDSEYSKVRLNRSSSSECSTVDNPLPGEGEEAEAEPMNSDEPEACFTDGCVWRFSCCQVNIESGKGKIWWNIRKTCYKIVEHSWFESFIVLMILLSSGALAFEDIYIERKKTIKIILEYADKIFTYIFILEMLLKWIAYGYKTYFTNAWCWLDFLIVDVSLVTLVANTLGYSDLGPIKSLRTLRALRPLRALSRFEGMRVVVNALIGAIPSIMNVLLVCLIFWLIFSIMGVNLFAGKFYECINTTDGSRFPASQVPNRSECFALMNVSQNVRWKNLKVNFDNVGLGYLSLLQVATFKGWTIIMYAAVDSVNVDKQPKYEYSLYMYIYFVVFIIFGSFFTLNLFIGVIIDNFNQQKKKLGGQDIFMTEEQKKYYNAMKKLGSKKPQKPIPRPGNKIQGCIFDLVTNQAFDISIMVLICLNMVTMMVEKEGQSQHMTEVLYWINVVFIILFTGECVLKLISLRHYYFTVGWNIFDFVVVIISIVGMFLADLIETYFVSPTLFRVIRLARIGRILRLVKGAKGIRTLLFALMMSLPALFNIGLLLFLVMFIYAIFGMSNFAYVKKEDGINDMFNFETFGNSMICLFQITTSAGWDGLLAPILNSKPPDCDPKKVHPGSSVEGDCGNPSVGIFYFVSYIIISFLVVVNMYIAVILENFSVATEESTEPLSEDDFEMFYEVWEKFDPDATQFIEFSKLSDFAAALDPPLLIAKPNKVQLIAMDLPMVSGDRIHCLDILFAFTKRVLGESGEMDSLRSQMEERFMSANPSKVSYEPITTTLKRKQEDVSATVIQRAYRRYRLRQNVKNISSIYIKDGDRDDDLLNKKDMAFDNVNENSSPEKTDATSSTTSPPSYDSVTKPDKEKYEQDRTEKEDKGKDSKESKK
Test: In Vitro PX Assay: 293 cells stably transfected with human Nav1.7 were recorded in whole cell voltage clamp mode with the PatchXpress automated electrophysiology system (Molecular Devices, LLC, Sunnyvale, Calif.). Compound effects were measured on a partially inactivated state of the sodium channel. Cells were clamped to a holding potential yielding 20 to 50% inactivation. To elicit sodium current, channels were activated by pulsing to −10 mV for 20 msec. This voltage protocol was repeated at a rate of 0.1 Hz throughout the experiment. A single concentration of test compound was applied to cells for a duration of 3 minutes. Peak sodium current was measured at the end of the compound addition period to determine percent inhibition.
Assay type: cell-based
Measurement Label: IC50 (µM)
Respond numerically; units are µM and should not be typed.

- Compound: "O=S(=O)(Nc1ncns1)c1ccc2c(N3CCC3c3ccccc3)cccc2c1 (centres undefined)"
  Val: 10.5
- Compound: "O=S(=O)(Nc1nccs1)c1ccc2c(-c3ccc(C(F)(F)F)cc3Cl)ncnc2c1"
  Val: 0.971
- Compound: "COc1cc(C#N)ccc1-c1nncc2cc(S(=O)(=O)Nc3nccs3)ccc12"
  Val: 1.23
- Compound: "O=S(=O)(Nc1ccncn1)c1ccc2c(-c3ccc(-c4cccc(F)c4)cc3)nccc2c1"
  Val: 4.5
- Compound: "COc1cc(C)ccc1-c1nccc2cc(S(=O)(=O)Nc3nccs3)ccc12"
  Val: 0.393

Entry `Cc1cnc(OCCOc2ccccc2)c(-c2nccc3cc(S(=O)(=O)Nc4nccs4)ccc23)c1` ; assay system Sodium channel protein type 9 subunit alpha (Homo sapiens, UniProt Q15858); IC50 recorded at 5.16

Entry `COc1cc(-c2cccnc2)ccc1-c1nccc2cc(S(=O)(=O)Nc3ccncn3)ccc12` ; assay system Sodium channel protein type 9 subunit alpha (Homo sapiens, UniProt Q15858); IC50 recorded at 5.37

Entry `COc1cc(Cl)ncc1-c1nccc2cc(S(=O)(=O)Nc3ccncn3)ccc12` ; assay system Sodium channel protein type 9 subunit alpha (Homo sapiens, UniProt Q15858); IC50 recorded at 18.3

Entry `O=S(=O)(Nc1nccs1)c1ccc2c(N3CCN(c4ccc(Cl)c(Cl)c4)CC3)nccc2c1` ; assay system Sodium channel protein type 9 subunit alpha (Homo sapiens, UniProt Q15858); IC50 recorded at 10.9
